Reported EC50 values for a set of binders
Molecular target: T1, mesothelin on NCI-H226 cells (UniProt Q13421 296-598)
T1 construct: whole, on cells; In the immunoblots the protein stood in a denatured cell extract
T1 sequence (Q13421 other isoform, or with tags, fused parts or gaps limits assumed): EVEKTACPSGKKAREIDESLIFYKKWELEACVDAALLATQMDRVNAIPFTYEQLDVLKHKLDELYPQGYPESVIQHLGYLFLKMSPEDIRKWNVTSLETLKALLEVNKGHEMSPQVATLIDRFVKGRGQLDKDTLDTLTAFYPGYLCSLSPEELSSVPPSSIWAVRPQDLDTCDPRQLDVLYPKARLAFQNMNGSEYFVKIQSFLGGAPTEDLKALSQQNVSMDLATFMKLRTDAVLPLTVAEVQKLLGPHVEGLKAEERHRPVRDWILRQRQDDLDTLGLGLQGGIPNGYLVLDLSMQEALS
Test: FACS titration, IgG on NCI-H226 cells
Hi! Could you send only the number? It should be in nM, unit omitted.

// known answers, use as guide
MOR06669 IgG (antibody, V domains shown) VH: QVQLVQSGAEVKKPGESLKISCKGSGYSFTNYWIGWVRQMPGKGLEWMGIIWPIDSFTQYSPSFQGQVTISADKSISTAYLQWSSLKASDTAMYYCARYGHGMYGGALDVWGQGTLVTVSS VL: DIVLTQSPATLSLSPGERATLSCRASQSVRSSRLAWYQQKPGQAPRLLIYGASKRATGVPARFSGSGSGTDFTLTISSLEPEDFATYYCQQYYDFPPTFGQGTKVEIKR; 0.41
MOR07111 IgG (antibody, V domains shown) VH: QVQLVQSGAEVKKPGESLKISCKGSGYSFTNYWIGWVRQMPGKGLEWMGVIMPSDSYTRYSPSFQGQVTISADKSISTAYLQWSSLKASDTAMYYCARYGHGMYGGALDVWGQGTLVTVSS VL: DIVLTQSPATLSLSPGERATLSCRASQSVRSSRLAWYQQKPGQAPRLLIYGASKRATGVPARFSGSGSGTDFTLTISSLEPEDFAVYYCQQFYSKPITFGQGTKVEIKR; 0.8

Next up:
Query block: Reported EC50, binder MOR06626 IgG (antibody, V domains shown) VH: QVQLVQSGAEVKKPGASVKVSCKASGYTFTGNYINWVRQAPGQGLEWMGIINPTKGWTLYAQKFQGRVTMTRDTSISTAYMELSSLRSEDTAVYYCARWHHGTWIFDYWGQGTLVTVSS VL: DIVLTQPPSVSGAPGQRVTISCSGSSSNIGSNYVSWYQQLPGTAPKLLIYNDNQRPSGVPDRFSGSKSGTSASLAITGLQSEDEADYYCSTYDRRTFSVFGGGTKLTVLG : ____
Result block: 0.44
